B1: PhoQ; a variant is named by its letters at X, in order, P23837 (parent)
chain: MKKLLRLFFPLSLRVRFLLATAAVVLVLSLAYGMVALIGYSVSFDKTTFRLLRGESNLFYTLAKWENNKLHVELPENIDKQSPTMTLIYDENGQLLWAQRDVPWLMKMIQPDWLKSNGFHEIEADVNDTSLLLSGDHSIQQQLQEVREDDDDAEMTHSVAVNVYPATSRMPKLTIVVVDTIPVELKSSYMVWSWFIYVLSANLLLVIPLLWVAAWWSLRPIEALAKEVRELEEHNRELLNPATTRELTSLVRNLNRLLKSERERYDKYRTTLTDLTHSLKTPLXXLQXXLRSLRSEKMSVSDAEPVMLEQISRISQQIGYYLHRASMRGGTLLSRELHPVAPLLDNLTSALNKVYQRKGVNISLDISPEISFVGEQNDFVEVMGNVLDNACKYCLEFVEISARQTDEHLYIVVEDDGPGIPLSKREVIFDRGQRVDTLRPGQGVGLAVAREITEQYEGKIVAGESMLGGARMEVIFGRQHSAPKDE

Variants of: B1
Test: enrichment ratio after two sorts for PhoP signalling (ratio (wild type AVST 3.29)); higher = more functional
Settings: with PhoP (E. coli)
In all, about 140,000 sequences were measured (“enrichment ratio after two sorts for PhoP signalling”: median about 0, highest 2% from about 11 on). For the sample, the highest values were picked, then their nearest neighbours and some sequences at random.

[
  {
    "MUTATION CODE": "AIVS",
    "enrichment ratio": 12.6
  },
  {
    "MUTATION CODE": "YTVM",
    "enrichment ratio": "≤ 0.25"
  },
  {
    "MUTATION CODE": "PQNK",
    "enrichment ratio": "≤ 0.25"
  },
  {
    "MUTATION CODE": "IFTF",
    "enrichment ratio": "≤ 0.25"
  },
  {
    "MUTATION CODE": "TKVS",
    "enrichment ratio": 7.5
  },
  {
    "MUTATION CODE": "SDGA",
    "enrichment ratio": "≤ 0.25"
  },
  {
    "MUTATION CODE": "TANM",
    "enrichment ratio": 19.5
  },
  {
    "MUTATION CODE": "FCVM",
    "enrichment ratio": "≤ 0.25"
  },
  {
    "MUTATION CODE": "TANL",
    "enrichment ratio": 10
  },
  {
    "MUTATION CODE": "EELG",
    "enrichment ratio": "≤ 0.25"
  },
  {
    "MUTATION CODE": "VQVR",
    "enrichment ratio": "≤ 0.25"
  },
  {
    "MUTATION CODE": "TAPM",
    "enrichment ratio": "≤ 0.25"
  },
  {
    "MUTATION CODE": "PQKS",
    "enrichment ratio": "≤ 0.25"
  },
  {
    "MUTATION CODE": "DSTR",
    "enrichment ratio": "≤ 0.25"
  },
  {
    "MUTATION CODE": "WLYA",
    "enrichment ratio": "≤ 0.25"
  },
  {
    "MUTATION CODE": "AAVS",
    "enrichment ratio": "≤ 0.25"
  },
  {
    "MUTATION CODE": "MTIM",
    "enrichment ratio": 25.3
  },
  {
    "MUTATION CODE": "GDTH",
    "enrichment ratio": "≤ 0.25"
  },
  {
    "MUTATION CODE": "LTVM",
    "enrichment ratio": "≤ 0.25"
  },
  {
    "MUTATION CODE": "KKEL",
    "enrichment ratio": "≤ 0.25"
  },
  {
    "MUTATION CODE": "KAGL",
    "enrichment ratio": "≤ 0.25"
  },
  {
    "MUTATION CODE": "WIRR",
    "enrichment ratio": "≤ 0.25"
  },
  {
    "MUTATION CODE": "HHKF",
    "enrichment ratio": "≤ 0.25"
  },
  {
    "MUTATION CODE": "WIVS",
    "enrichment ratio": "≤ 0.25"
  },
  {
    "MUTATION CODE": "NAGL",
    "enrichment ratio": "≤ 0.25"
  },
  {
    "MUTATION CODE": "AKVS",
    "enrichment ratio": 13.5
  },
  {
    "MUTATION CODE": "YANM",
    "enrichment ratio": 0.317
  },
  {
    "MUTATION CODE": "KSIH",
    "enrichment ratio": "≤ 0.25"
  },
  {
    "MUTATION CODE": "YYCV",
    "enrichment ratio": "≤ 0.25"
  },
  {
    "MUTATION CODE": "KIVE",
    "enrichment ratio": "≤ 0.25"
  },
  {
    "MUTATION CODE": "LGIQ",
    "enrichment ratio": "≤ 0.25"
  },
  {
    "MUTATION CODE": "TAGL",
    "enrichment ratio": 12.4
  },
  {
    "MUTATION CODE": "SSAE",
    "enrichment ratio": 10.5
  },
  {
    "MUTATION CODE": "TANS",
    "enrichment ratio": 11.9
  },
  {
    "MUTATION CODE": "RMVY",
    "enrichment ratio": "≤ 0.25"
  }
]

Reference source: a collection of fitness landscapes (doi:10.1126/science.1257360)
